# credit: ChEMBL document CHEMBL1795257

target: Mu-type opioid receptor (Cavia porcellus); assay: Displacement of [3H]DAMGO from mu opioid receptor in guinea pig forebrain homogenate by scintillation counting; assay type: tissue-based, Brain
Sequence (P97266 whole entry): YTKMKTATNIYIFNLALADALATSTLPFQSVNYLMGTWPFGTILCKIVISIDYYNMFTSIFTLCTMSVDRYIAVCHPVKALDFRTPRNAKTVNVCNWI
Known pKi of a selection of compounds
In plain terms, pKi is the concentration in mol/L turned into minus its base-10 logarithm.

As a guide, the following entries are already answered.
O=C1CCC23Cc4ccc(O)cc4C2(CCN(CC2CC2)C3)C1 (configuration not stated) :: 7.24
CC(C)=CCN1CC[C@@]2(C)c3cc(O)ccc3C[C@@H]1[C@@H]2C :: 8.34
Oc1ccc2c3c1OC1C4(O)CC[C@@]5(OC4)[C@@H](C2)N(CC2CC2)CC[C@]315 (some centres not stated) :: 9.80
CN1CCC23CC(=O)CCC2(Cc2ccc(O)cc23)C1 (configuration not stated) :: 8.44

## Input Retrieve pKi measured for O=C1CC[C@@]2(O)[C@H]3Cc4ccc(O)cc4[C@@]2(CCN3CC2CC2)C1 and print it.
## Output 9.85

## Input Give the value of pKi reported for the following: CCC12CCN(CC3(O)CC3)[C@H](Cc3ccc(O)cc31)C2(C)C
## Output 9.70

## Input Quote pKi reported for O=C1CCC23Cc4ccc(O)cc4C2(CCN(CC2(O)CC2)C3)C1 (configuration not stated) please.
## Output 7.11

====

species on record: Cavia porcellus; assay: Selectivity ratio of Ki for delta opioid receptor in guinea pig forebrain homogenate to Ki for kappa opioid receptor in guinea pig cerebellum homogenate; assay type: tissue-based
Readout Type: Ratio Ki

Oc1ccc2c3c1OC1C4(O)CC[C@@]5(OC4)[C@@H](C2)N(CC2CC2)CC[C@]315 (some centres undefined) :: 30
O=C1CC[C@@]2(O)[C@H]3Cc4ccc(O)cc4[C@@]2(CCN3CC2CC2)C1 :: 48
O=C1CCC23Cc4ccc(O)cc4C2(CCN(CC2(O)CC2)C3)C1 (centres undefined) :: 23

## Input Kindly indicate its recorded Ratio Ki. Item: CC(C)=CCN1CC[C@@]2(C)c3cc(O)ccc3C[C@@H]1[C@@H]2C
## Output 6.4

## Input Supply Ratio Ki value. Item: OCC12CC[C@@]3(O1)[C@H]1Cc4ccc(O)cc4[C@@]3(CCN1CC1CC1)C2
## Output 35

## Input Provide Ratio Ki value for the following compound: CN1CCC23CC(=O)CCC2(Cc2ccc(O)cc23)C1 (centres undefined)
## Output 1.7

## Input Could you please provide reported Ratio Ki for O=C1CC[C@@]2(O)[C@H]3Cc4ccc(O)c5c4[C@@]2(CCN3CC2CC2)[C@H]1O5 ? Thanks!
## Output 56

## Input Item O=C1CCC23Cc4ccc(O)cc4C2(CCN(CC2CC2)C3)C1 (centres undefined) : provide Ratio Ki
## Output 26

## Input Could you please provide reported Ratio Ki for O=C1CC23CCN(CC4CC4)C(Cc4ccc(O)cc42)C32CCC1O2 (centres undefined) ? Thanks!
## Output 30

====

molecular target: Kappa-type opioid receptor (Cavia porcellus)
Sequence (P41144 whole entry): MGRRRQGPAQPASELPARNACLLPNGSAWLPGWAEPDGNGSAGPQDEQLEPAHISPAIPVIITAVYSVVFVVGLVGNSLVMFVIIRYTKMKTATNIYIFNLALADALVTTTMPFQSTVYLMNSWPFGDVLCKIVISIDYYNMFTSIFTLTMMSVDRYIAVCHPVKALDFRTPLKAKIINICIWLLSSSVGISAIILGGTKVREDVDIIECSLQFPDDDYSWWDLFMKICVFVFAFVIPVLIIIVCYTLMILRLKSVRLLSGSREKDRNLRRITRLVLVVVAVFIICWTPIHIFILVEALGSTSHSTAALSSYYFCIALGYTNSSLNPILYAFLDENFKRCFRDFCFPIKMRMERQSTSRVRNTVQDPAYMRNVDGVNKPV
Kindly apply the following: Condition met if Ki is less than 4 nM, Condition not met in every other case.

CN1CCC23CC(=O)CCC2(Cc2ccc(O)cc23)C1 (stereo unspecified) :: Condition not met
O=C1CCC23Cc4ccc(O)cc4C2(CCN(CC2(O)CC2)C3)C1 (stereo unspecified) :: Condition not met
O=C1CCC23Cc4ccc(O)cc4C2(CCN(CC2CC2)C3)C1 (stereo unspecified) :: Condition not met

## Input Is 4 nM strictly greater than the compound's reported Ki? compound: O=C1CC[C@@]2(O)[C@H]3Cc4ccc(O)cc4[C@@]2(CCN3CC2CC2)C1
## Output Condition met

## Input Take the compound CC(C)=CCN1CC[C@@]2(C)c3cc(O)ccc3C[C@@H]1[C@@H]2C and say whether its Ki is less than 4 nM.
## Output Condition met

## Input Consider the compound Oc1ccc2c3c1OC1C4(O)CC[C@@]5(OC4)[C@@H](C2)N(CC2CC2)CC[C@]315 (stereo partly specified) . Is its Ki strictly less than 4 nM?
## Output Condition met
